Data provenance is the supplement of paper PMC8024199.

Provide the reported drug sensitivity score of each item.
- System: Ba/F3 P210-BCR-ABL1 RUNX1wt/wt control (mouse)
- assayExplanation: drug sensitivity score (DSS) (DSS score); higher = more sensitive (stronger growth inhibition); extreme values may be limits of the assay
Please respond with just the number, no unit label.

drug sensitivity score reading for COc1cc(Nc2c(C#N)cnc3cc(OCCCN4CCN(C)CC4)c(OC)cc23)c(Cl)cc1Cl : 18.6

drug sensitivity score reading for O=C(CCCCCCC(=O)Nc1ccc([C@H]2O[C@@H](CSc3nc(-c4ccccc4)c(-c4ccccc4)o3)C[C@@H](c3ccc(CO)cc3)O2)cc1)NO : 4.35

drug sensitivity score reading for CC[C@@H]1C(=O)OC[C@@H]1Cc1cncn1C : 0.55

drug sensitivity score reading for CNC(=O)c1ccc(N2C(=S)N(c3ccc(C#N)c(C(F)(F)F)c3)C(=O)C2(C)C)cc1F [Enzalutamide] : 0.3

drug sensitivity score reading for O=C(Nc1cccc(NC(=O)c2cccc(O)c2O)c1)c1cccc(O)c1O : 17.2

drug sensitivity score reading for Cc1c(F)cc(C(=O)NC2CC2)cc1-c1ccc(C(=O)NCC(C)(C)C)cn1 : 0.15

drug sensitivity score reading for CC[C@]1(O)C[C@H]2CN(CCc3c([nH]c4ccccc34)[C@@](C(=O)OC)(c3cc4c(cc3OC)N(C=O)[C@H]3[C@@](O)(C(=O)OC)[C@H](OC(C)=O)[C@]5(CC)C=CCN6CC[C@]43[C@@H]65)C2)C1 : 13.9

drug sensitivity score reading for COCCNCc1ccc(-c2cc3nccc(Oc4ccc(NC(=O)C5(C(=O)Nc6ccc(F)cc6)CC5)cc4F)c3s2)nc1 : 0
